Test: Comparison of absorption in rats after intragastric administration of free base and salt (plasma pharmacokinetics)
Assay type: in vivo, SD rats
Details: SD rats, 20 μmol/kg, intragastric administration, plasma
Description: The blood sample was centrifuged at 8000 RPM for 5 minutes, followed by the isolation of the upper plasma. […] 200 μL of the supernatant was taken and centrifuged again for 10 minutes. 50 μL of the supernatant was injected in a 96-well plate. The plasma drug concentration was determined by LC/MS/MS, and the corresponding pharmacokinetic parameters were calculated.
reported.property: MRT (0-T) (h)

> print(dat)
                           smiles.structure  unit.tag  reported.value
1  C=C(F)C(=O)Nc1cc2c(Nc3ccc(F)c(Cl)c3)ncnc2cc1OCCCN1CCOCC1.Cl.O         h          6.8127
2  C=C(F)C(=O)Nc1cc2c(Nc3ccc(F)c(Cl)c3)ncnc2cc1OCCCN1CCOCC1.O=S(=O)(O)O         h          5.7252
3  C=C(F)C(=O)Nc1cc2c(Nc3ccc(F)c(Cl)c3)ncnc2cc1OCCCN1CCOCC1.O=S(=O)(O)CCS(=O)(=O)O         h          5.3317
4  C=C(F)C(=O)Nc1cc2c(Nc3ccc(F)c(Cl)c3)ncnc2cc1OCCCN1CCOCC1.O=S(=O)(O)c1ccccc1         h          5.9522
5  C=C(F)C(=O)Nc1cc2c(Nc3ccc(F)c(Cl)c3)ncnc2cc1OCCCN1CCOCC1.O=C(O)[C@H](O)[C@@H](O)[C@H](O)[C@H](O)CO         h          6.2613
